- Tested on: HCC1428
- ASSAY PROCEDURE: -log10 GI50 (growth inhibition 50%) (-log10(M)); higher = more potent growth inhibition
READOUT: -log10 GI50

Nc1[nH]nc2nnc(-c3c(-c4ccccc4)nn4ccccc34)cc12 :: 4.56
CCC[C@H](N[C@H]1CCc2cc(F)cc(F)c2C1)C(=O)Nc1cn(C(C)(C)CNCC(C)(C)C)cn1 :: 4.45
NS(=O)(=O)OC[C@@H]1C[C@@H](n2ccc3c(N[C@H]4CCc5ccccc54)ncnc32)C[C@@H]1O [MLN4924] :: 6.94
COc1cc2ncnc(Nc3ccc(F)c(Cl)c3)c2cc1OCCCN1CCOCC1 [Gefitinib] :: 4.97
CCn1cc(-c2ccnc3[nH]c(-c4cccc(CN(C)C)c4)cc23)c(-c2ccc(NC(=O)N(C)C)cc2)n1 :: 5.69
Cc1ccc(C(=O)N(CCCN)[C@@H](c2nc3cc(Cl)ccc3c(=O)n2Cc2ccccc2)C(C)C)cc1 [Ispinesib] :: 5.37
CC(C)Oc1ccc(C(=O)N[C@H](CNC(=O)CN(C)C)Cc2ccc(-c3cn4cccc([C@H](C)O)c4n3)cc2)cc1Cl :: 5.99
